# Target entity: T1, human MSLN-FL-his protein (human, UniProt Q13421 296-580)
# T1 construct: made in HEK293E cells, purified on nickel column; also called hMSLN-FL-his; human MSLN full-length protein; not shown: His tag
# T1 sequence (Q13421 other isoform, or with tags, fused parts or gaps): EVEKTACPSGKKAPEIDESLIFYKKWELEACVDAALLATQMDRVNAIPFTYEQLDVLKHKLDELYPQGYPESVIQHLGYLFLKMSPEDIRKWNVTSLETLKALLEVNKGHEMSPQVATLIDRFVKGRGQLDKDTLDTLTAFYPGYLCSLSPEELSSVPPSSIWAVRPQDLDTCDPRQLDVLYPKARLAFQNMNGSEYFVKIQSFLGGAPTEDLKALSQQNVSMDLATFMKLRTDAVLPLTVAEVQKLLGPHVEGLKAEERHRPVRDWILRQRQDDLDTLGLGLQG
# Assay protocol: competitive ELISA; coated 2ug/ml F3.74.20
Property measured: competition rate (%)
Reply with just the number (in %).

Q: Consider the binder S009-F3.74.20 (antibody, human IgG1, kappa, V domains shown, human-murine chimeric antibody, human IgG1/kappa constant regions) VH: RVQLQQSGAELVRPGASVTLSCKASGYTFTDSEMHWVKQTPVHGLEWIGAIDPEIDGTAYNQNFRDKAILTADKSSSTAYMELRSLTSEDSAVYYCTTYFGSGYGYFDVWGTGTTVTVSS VL: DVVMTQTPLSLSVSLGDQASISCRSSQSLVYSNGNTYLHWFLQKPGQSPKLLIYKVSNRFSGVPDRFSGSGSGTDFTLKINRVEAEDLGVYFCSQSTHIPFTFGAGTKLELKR and give its measured competition rate.
A: 98
